Biological target: T1, AnaCA-RbcX (Anabaena sp. CA, UniProt Q44212 1-135)
T1 construct: also called RbcX from Anabaena sp; CA
T1 sequence (looked up): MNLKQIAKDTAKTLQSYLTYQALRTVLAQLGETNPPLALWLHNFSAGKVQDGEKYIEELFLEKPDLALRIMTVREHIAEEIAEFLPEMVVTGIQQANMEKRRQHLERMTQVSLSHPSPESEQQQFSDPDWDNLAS
Assay: isothermal titration calorimetry, peptide titrated into RbcX dimer at 22°C
pKd: −log10 of the molar value.
# reported pKd; entries follow

In [3]: df
Out[3]:
                                     binder  result
0  EIKFEFD (also called peptide EIKFEFD) [Syn7002-RbcL peptide 1, EIKFEFD]   ~4.22

// below: pKd requested for another binder
Please give the measured pKd for this binder: KEIKFEFDTVD [Syn7002-RbcL peptide 2, KEIKFEFDTVD]
~5.30

The reported measurements were obtained from patent EP1988168A1.
